We begin with a simple list: items and their reported T/C.
test system: L1210 leukemia ip in BDF1 mice, survival T/C; experiment: NCI In Vivo Anticancer Drug Screen. Data for tumor model L1210 Leukemia (intraperitoneal) in B6D2F1 (BDF1) mice; conditions: endpoint: mean survival time; dose: 25.0 mg/kg/injection; schedule: Q01DX001 (ip); vehicle: saline; higher = longer survival
Inconclusive results and toxic doses are left out.

Please review the entries below; each comes with its answer.
1. NCC(=O)c1c[nH]c(=O)[nH]c1=O :: 107 % of control
2. Oc1ccccc1C=NCCCN1CCOCC1.Oc1ccccc1C=NCCCN1CCOCC1.[Co] :: 100 % of control
3. COC(=O)C(NC(C)=O)C(C)C (stereo not given) :: 100 % of control

Supply reported T/C belonging to this compound: `CS/C(N)=N\N=C/c1ccccc1` 117 % of control

Write down T/C measured for item `CC(=[N-])CC(C)=O.CC(=[N-])CC(C)=O.[Co+2]` 98 % of control

###

system: L1210 leukemia ip in BDF1 mice, survival T/C; test: NCI In Vivo Anticancer Drug Screen. Data for tumor model L1210 Leukemia (intraperitoneal) in B6D2F1 (BDF1) mice; conditions: endpoint: mean survival time; dose: 25.0 mg/kg/injection; schedule: Q04DX002 (ip); vehicle: Klucel (hydroxypropylcellulose) (HPC); higher = longer survival
Inconclusive results and toxic doses are left out.
Attribute: T/C

Please review the following examples before continuing.
1. CC(C)(C)c1ccc(O)c([N+](=O)[O-])c1 :: 86 % of control
2. COC(=O)c1ccccc1C[P+](c1ccccc1)(c1ccccc1)c1ccccc1 :: 88 % of control
3. NC(CSS(=O)(=O)O)=NCCSc1ccc(Cl)cc1 :: 100 % of control

Answer with the recorded T/C for the molecule listed here: `O=C(Nc1ncc([N+](=O)[O-])s1)c1ccc(Cl)s1` 87 % of control

###

test system: L1210 leukemia ip in BDF1 mice, survival T/C; experiment: NCI In Vivo Anticancer Drug Screen. Data for tumor model L1210 Leukemia (intraperitoneal) in B6D2F1 (BDF1) mice; details: endpoint: mean survival time; dose: 100.0 mg/kg/injection; schedule: Q01DX001 (ip); vehicle: carboxymethylcellulose (CMC); higher = longer survival
Toxic doses and inconclusive results are not listed.
recorded.metric: T/C

Worked examples, 5 compounds total:
1) CC(=O)OCC1OC(n2c(Br)nc3c(N)ncnc32)C2OC(C)(C)OC12 (configuration not stated) :: 93 % of control
2) COc1ccccc1/C=C(/C)[N+](=O)[O-] :: 97 % of control
3) O=C1c2cc(F)ccc2-c2cccc(F)c21 :: 108 % of control
4) COc1ccc2c(c1O)C13CCN(C)C(C2)C12C=CC(=O)C3c1c(O)ccc(O)c12 (configuration not stated) :: 92 % of control
5) CC1(C)OC(CO)C2OC(C)(C)OC(CO)C2O1 (configuration not stated) :: 98 % of control

Consider the record given below.
Give a short answer stating reported T/C for Cc1ccc(C2(O)CC3CCC2(c2ccc(C)cc2)C3)cc1 (configuration not stated) . 101 % of control

###

system: L1210 leukemia ip in BDF1 mice, survival T/C; test: NCI In Vivo Anticancer Drug Screen. Data for tumor model L1210 Leukemia (intraperitoneal) in B6D2F1 (BDF1) mice; settings: endpoint: mean survival time; dose: 100.0 mg/kg/injection; schedule: Q01DX009 (ip); vehicle: Klucel (hydroxypropylcellulose) (HPC); higher = longer survival
Toxic doses and inconclusive results are not listed.
recorded.metric: T/C

1. CSc1nc2ccccc2s1 :: 97 % of control

Answer with reported T/C of `CCc1ccc(NC(=O)NC(C)C)cc1` 91 % of control

For the compound `COc1ccc(OC(=O)Nc2cc([N+](=O)[O-])ccc2OC)cc1` , report T/C. 88 % of control

Quick one: give measured T/C for `Cc1cc(S(=O)(=O)F)ccc1NC(=O)NCc1ccc([N+](=O)[O-])cc1` 100 % of control
